tested on: HeLa; assay: cell viability (CellTiter-Glo) relative to median of lowest-dilution wells of all drugs (fraction); higher = more viable cells; conditions: drug concentration (unit not stated): 0.37; genotype: DDX11 knockout
reported_metric: cell viability
Give bare numbers.

Example compounds with recorded cell viability:
{"compound": "Nc1ncn([C@@H]2O[C@H](CO)[C@@H](O)[C@H]2O)c(=O)n1", "reported_metric": "cell viability", "recorded_number": 1.01}
{"compound": "C=CCn1c(=O)c2cnc(Nc3ccc(N4CCN(C)CC4)cc3)nc2n1-c1cccc(C(C)(C)O)n1", "reported_metric": "cell viability", "recorded_number": 0.85}
{"compound": "Nc1nc(Cl)nc2c1ncn2[C@@H]1O[C@H](CO)[C@@H](O)[C@@H]1F", "reported_metric": "cell viability", "recorded_number": 0.177}

Give cell viability for all compounds that follow.
1. COc1cc([C@@H]2c3cc4c(cc3[C@@H](O[C@@H]3O[C@@H]5CO[C@@H](C)O[C@H]5[C@H](O)[C@H]3O)[C@H]3COC(=O)[C@H]23)OCO4)cc(OC)c1O [Etoposide (VP-16)]
2. CC(C)C[C@H](NC(=O)[C@H](CCc1ccccc1)NC(=O)CN1CCOCC1)C(=O)N[C@@H](Cc1ccccc1)C(=O)N[C@@H](CC(C)C)C(=O)[C@@]1(C)CO1
3. COc1ncc(-c2ccc3nccc(-c4ccnnc4)c3c2)cc1NS(=O)(=O)c1ccc(F)cc1F
4. Nc1nc2[nH]cc(CCc3ccc(C(=O)N[C@@H](CCC(=O)O)C(=O)O)cc3)c2c(=O)[nH]1

Result:
1. 0.737
2. 0.0394
3. 0.33
4. 0.781

----------
system: HeLa; experiment: cell viability (CellTiter-Glo) relative to median of lowest-dilution wells of all drugs (fraction); higher = more viable cells; conditions: drug concentration (unit not stated): 1.11; genotype: control (DDX11 wild type)
Exam item: assign 1 to entries whose cell viability is below 0.9 and -1 to entries at or above 0.9. Note that a value of exactly 0.9 receives -1.

Example cases with answers are listed next.
{"molecule": "C[C@@H]1COCCN1c1cc(C2([S@](C)(=N)=O)CC2)nc(-c2cc[nH]c3nccc2-3)n1 [AZD6738]", "label": -1}
{"molecule": "CC(=O)O[C@H]1C(=O)[C@@]2(C)[C@H]([C@H](OC(=O)c3ccccc3)[C@]3(O)C[C@H](OC(=O)[C@H](O)[C@@H](NC(=O)c4ccccc4)c4ccccc4)C(C)=C1C3(C)C)[C@]1(OC(C)=O)CO[C@@H]1C[C@@H]2O [Paclitaxel (Taxol)]", "label": 1}
{"molecule": "CN(Cc1cnc2nc(N)nc(N)c2n1)c1ccc(C(=O)N[C@@H](CCC(=O)O)C(=O)O)cc1 [Abitrexate (Methotrexate)]", "label": 1}
{"molecule": "C[C@@]1(CO)[C@H](O)CC[C@@]2(C)[C@H]1CC[C@H]1C[C@@H]3C[C@@]12CC[C@]3(O)CO [Aphidicolin]", "label": 1}
{"molecule": "COc1ccc(C2=N[C@@H](c3ccc(Cl)cc3)[C@@H](c3ccc(Cl)cc3)N2C(=O)N2CCNC(=O)C2)c(OC(C)C)c1 [Nutlin-3]", "label": -1}

Request: Problem: For the molecule Cn1cnc2c(F)c(Nc3ccc(Br)cc3Cl)c(C(=O)NOCCO)cc21 [Selumetinib (AZD6244)] , is cell viability under 0.9?
Result: -1

Request: Would you kindly verify if cell viability of CCc1cnn2c(NCc3ccc[n+]([O-])c3)cc(N3CCCC[C@H]3CCO)nc12 [Dinaciclib] is strictly less than 0.9?
Result: 1

----------
test system: HeLa; experiment: cell viability (CellTiter-Glo) relative to median of lowest-dilution wells of all drugs (fraction); higher = more viable cells; conditions: drug concentration (unit not stated): 10; genotype: DDX11 knockout
Please respond with fulfilled when measured cell viability is strictly beneath 0.7, and with not fulfilled in all other cases.

Example results:
{"smiles_record": "COc1ccc(C2=N[C@@H](c3ccc(Cl)cc3)[C@@H](c3ccc(Cl)cc3)N2C(=O)N2CCNC(=O)C2)c(OC(C)C)c1", "label": "not fulfilled"}
{"smiles_record": "CO[C@@H](C(=O)N1Cc2[nH]nc(NC(=O)c3ccc(N4CCN(C)CC4)cc3)c2C1)c1ccccc1", "label": "fulfilled"}
{"smiles_record": "CC1(C)CCC(c2ccc(Cl)cc2)=C(CN2CCN(c3ccc(C(=O)NS(=O)(=O)c4ccc(N[C@H](CCN5CCOCC5)CSc5ccccc5)c(S(=O)(=O)C(F)(F)F)c4)cc3)CC2)C1", "label": "not fulfilled"}
{"smiles_record": "CC(C)(C)Cn1c(N)nc2ccc(-c3[nH]c(C(C)(C)C)nc3-c3ccc(F)cc3)nc21", "label": "not fulfilled"}
{"smiles_record": "C[C@@H](Nc1cc(F)cc(F)c1)c1cc(C(=O)N(C)C)cc2c(=O)cc(N3CCOCC3)oc12", "label": "fulfilled"}

Request: Determine if Nc1cc(C(F)(F)F)c(-c2cc(N3CCOCC3)nc(N3CCOCC3)n2)cn1 shows cell viability strictly lower than 0.7.
Result: fulfilled

Request: Problem: For the compound O=C(c1cc(Cc2n[nH]c(=O)c3ccccc23)ccc1F)N1CCN(C(=O)C2CC2)CC1 , is cell viability under 0.7?
Result: fulfilled

----------
test system: HeLa; test: cell viability (CellTiter-Glo) relative to median of lowest-dilution wells of all drugs (fraction); higher = more viable cells; settings: drug concentration (unit not stated): 10; genotype: DDX11 knockout
I'd appreciate it if you could supply cell viability values for the items below.
One number for each entry.

Here's what some known entries look like.
{"molecule": "CNC(=O)c1cccc(-c2ccc3c(N4CCOC[C@@H]4C)nc(N4CCOC[C@@H]4C)nc3n2)c1", "cell viability": 0.344}
{"molecule": "N.N.[Cl][Pt][Cl] [Cisplatin]", "cell viability": 0.0148}
{"molecule": "Cc1sc2c(c1C)C(c1ccc(Cl)cc1)=N[C@@H](CC(=O)OC(C)(C)C)c1nnc(C)n1-2 [(+)-JQ-1]", "cell viability": 0.51}

Go through the items and report each one's cell viability.
1. Cn1cnc2c(F)c(Nc3ccc(Br)cc3Cl)c(C(=O)NOCCO)cc21
2. CC(=O)c1c(C)c2cnc(Nc3ccc(N4CCNCC4)cn3)nc2n(C2CCCC2)c1=O
3. NC(=O)c1ccc(I)c([N+](=O)[O-])c1
4. O=C(O)C1(C(=O)O)CCC1.[NH2-].[NH2-].[Pt+2]
5. C[C@@H]1COCCN1c1cc(C2([S@](C)(=N)=O)CC2)nc(-c2cc[nH]c3nccc2-3)n1

Result:
[0.744, 0.9, 1.02, 0.165, 0.366]

----------
tested on: HeLa; test: cell viability (CellTiter-Glo) relative to median of lowest-dilution wells of all drugs (fraction); higher = more viable cells; details: drug concentration (unit not stated): 0.37; genotype: DDX11 knockout
Give measured cell viability for each item. Keep answers brief.
Give bare numbers.

{"molecule": "CC(=O)c1c(C)c2cnc(Nc3ccc(N4CCNCC4)cn3)nc2n(C2CCCC2)c1=O", "test_system": "HeLa", "recorded_number": 1.07}
{"molecule": "Nc1nc2[nH]cnc2c(=S)[nH]1", "test_system": "HeLa", "recorded_number": 0.94}
{"molecule": "O=C(c1cc(Cc2n[nH]c(=O)c3ccccc23)ccc1F)N1CCN(C(=O)C2CC2)CC1", "test_system": "HeLa", "recorded_number": 0.953}

From here, focus on the item given below.
Request: Reported cell viability, molecule CN(Cc1cnc2nc(N)nc(N)c2n1)c1ccc(C(=O)N[C@@H](CCC(=O)O)C(=O)O)cc1 [Abitrexate (Methotrexate)] : ____
Result: 0.725

----------
tested on: HeLa; test: cell viability (CellTiter-Glo) relative to median of lowest-dilution wells of all drugs (fraction); higher = more viable cells; conditions: drug concentration (unit not stated): 10; genotype: control (DDX11 wild type)
reported_metric: cell viability
Give bare numbers.

{"molecule": "C[C@@H]1COCCN1c1cc(-c2ccnn2C)c2ccnc(-c3ccn[nH]3)c2n1", "recorded_number": 0.227}
{"molecule": "Cc1cc(Nc2cc(N3CCN(C)CC3)nc(Sc3ccc(NC(=O)C4CC4)cc3)n2)n[nH]1 [Tozasertib (VX-680)]", "recorded_number": 0.975}
{"molecule": "O=c1[nH]cc(F)c(=O)[nH]1 [Adrucil (Fluorouracil)]", "recorded_number": 0.945}
{"molecule": "CC(C)(C)Cn1c(N)nc2ccc(-c3[nH]c(C(C)(C)C)nc3-c3ccc(F)cc3)nc21", "recorded_number": 1.03}
{"molecule": "CC[C@H](CO)Nc1nc(NCc2ccccc2)c2ncn(C(C)C)c2n1 [Seliciclib (Roscovitine)]", "recorded_number": 1.03}
{"molecule": "Nc1nc(F)nc2c1ncn2[C@@H]1O[C@H](COP(=O)(O)O)[C@@H](O)[C@@H]1O [Fludarabine Phosphate (Fludara)]", "recorded_number": 1.16}

Go through the items and report each one's cell viability.
1. Nc1cc(C(F)(F)F)c(-c2cc(N3CCOCC3)nc(N3CCOCC3)n2)cn1 [Buparlisib (BKM-120)]
2. CCCCCCNC(=O)n1cc(F)c(=O)[nH]c1=O [Carmofur]

Result:
1: 0.0382; 2: 0.924
